Reference source for all entries: patent US10131652B2

Listing of entries alongside the reported Corn plant response rating.
- System: corn (Zea mays)
- Protocol Text: Test D pre-/postemergence plant response
- Format: in vivo
- Setup Conditions: Postemergence, 31 g ai/ha; scale 0 to 100 (0 no effect, 100 complete control)
Answer field: number only, no words.

Here are 2 compounds together with their reported answers.
In [3]: df
Out[3]:
                                   compound  number
0  FC(F)c1cc(-c2ccccc2Oc2ncc(Br)cn2)on1 [Compound 212]       5
1  FC(F)(F)c1cc(-c2c(Br)cccc2Oc2ncc(Cl)cn2)no1 [Compound 170]       5

Prompt: Can you look up Corn plant response rating on corn (Zea mays) for Fc1cccc(Oc2ncc(Cl)cn2)c1-c1cc(C2CC2)on1 [Compound 130] ?
Completion: 25

----------
Listing of entries alongside the reported pest or weed control at 500 g/ha.
- Test system: giant foxtail (Setaria faberii)
- Protocol Text: Test B pre-/postemergence plant response
- Format: in vivo
- Setup Conditions: Setaria faberi, post-emergence, 240 h; Postemergence, 500 g ai/ha; 0 to 100 scale (0 no effect, 100 complete control); read-out: Plant response rating, Foxtail, Giant

                         chemical_structure  result
0  FC(F)(F)Oc1ccc(-c2ccccc2Oc2ncc(Cl)cn2)cc1     30%

Prompt: Can you look up pest or weed control at 500 g/ha on giant foxtail (Setaria faberii) for FC(F)c1cc(-c2ccccc2Oc2ncc(Br)cn2)no1 ?
Completion: 90%

Prompt: Can you look up pest or weed control at 500 g/ha on giant foxtail (Setaria faberii) for FC(F)(F)c1ccc(-c2ccccc2Oc2ncc(Cl)cn2)nc1 ?
Completion: 70%

Prompt: Can you look up pest or weed control at 500 g/ha on giant foxtail (Setaria faberii) for FC(F)(F)c1ccc(-c2c(Cl)cccc2Oc2ncc(Cl)cn2)nc1 ?
Completion: 100%

Prompt: Can you look up pest or weed control at 500 g/ha on giant foxtail (Setaria faberii) for FC(F)c1cc(-c2ccccc2Oc2ncc(Cl)cn2)on1 ?
Completion: 100%

----------
- Test system: corn (Zea mays)
- Protocol Text: Test D pre-/postemergence plant response
- Format: in vivo
- Setup Conditions: Postemergence, 16 g ai/ha
Property: Plant response rating (scale 0 to 100), Corn

>>> df
                         chemical_structure  result
0             Clc1cnc(Oc2ccccc2-c2ccon2)nc1       0
1  Fc1ccc(Oc2ncc(Cl)cn2)c(-c2cc(C(F)(Cl)Cl)on2)c1       0
2   CC(F)(F)c1cc(-c2ccccc2Oc2ncc(Cl)cn2)on1       0

Then there is this molecule:
Prompt: May I ask what Plant response rating (scale 0 to 100), Corn has been recorded for Clc1cnc(Oc2ccccc2-c2cc(C3CC3)on2)nc1 ?
Completion: 10

----------
- System: giant foxtail (Setaria faberii)
- Protocol Text: Test B pre-/postemergence plant response
- Assay type: in vivo
- Setup Conditions: 31 g ai/ha, Preemergence; 0 to 100 scale where 0 is no effect and 100 is complete control
Property: Plant response rating, Foxtail, Giant

In [3]: df
Out[3]:
                      chemical_structure                target_under_test                               property  result
0  N#Cc1cc(-c2c(F)cccc2Oc2ncc(Cl)cn2)no1  giant foxtail (Setaria faberii)  Plant response rating, Foxtail, Giant       0

Prompt: May I ask what Plant response rating, Foxtail, Giant has been recorded for Clc1cnc(Oc2ccccc2-c2cocn2)nc1 ?
Completion: 0

Prompt: May I ask what Plant response rating, Foxtail, Giant has been recorded for Fc1cnc(Oc2cccc(F)c2-c2cnccn2)nc1 ?
Completion: 0

Prompt: May I ask what Plant response rating, Foxtail, Giant has been recorded for FC(F)c1cc(-c2ccccc2Oc2ncc(Cl)cn2)co1 ?
Completion: 0

Prompt: May I ask what Plant response rating, Foxtail, Giant has been recorded for Brc1cnc(Oc2ccccc2-c2ccsc2)nc1 ?
Completion: 0

Prompt: May I ask what Plant response rating, Foxtail, Giant has been recorded for Fc1ccc(-c2cc(C(F)(F)F)no2)c(Oc2ncc(Cl)cn2)c1 ?
Completion: 20

----------
- Tested on: speedwell (bird's-eye speedwell, Veronica persica)
- Protocol Text: Test E pre-/postemergence plant response
- Assay type: in vivo
- Setup Conditions: post-emergence, 31 g ai/ha, Postemergence, scale 0 to 100, read-out: Plant response rating, Speedwell
Property: pest or weed control at 31 g/ha (%)
Quick note: give the figure in %, leave out the unit.

Here are 3 molecules together with their reported answers.
>>> df
                         chemical_structure  scale_unit  number
0   Fc1cccc(Oc2ncc(Br)cn2)c1-c1cc(C(F)F)no1           %     100
1   Fc1cccc(Oc2ncc(Cl)cn2)c1-c1cc(C(F)F)on1           %      80
2  Fc1cccc(Oc2ncc(Cl)cn2)c1-c1cc(C(F)(F)F)on1           %      75

Then there is this molecule:
Prompt: May I ask what pest or weed control at 31 g/ha has been recorded for FC(F)c1cc(-c2ccccc2Oc2ncc(Cl)cn2)no1 ?
Completion: 100

----------
- Tested on: large (Lg) crabgrass (Digitaria sanguinalis)
- Protocol Text: Test D pre-/postemergence plant response
- Format: in vivo
- Setup Conditions: Postemergence, 31 g ai/ha; scale 0 to 100 (0 no effect, 100 complete control)
Property: Crabgrass, Large plant response rating
Answer field: number only, no words.

>>> df
                         chemical_structure  number
0  FC(F)c1cc(-c2c(Cl)cccc2Oc2ncc(Cl)cn2)on1      25
1  FC(F)(Br)c1cc(-c2ccccc2Oc2ncc(Cl)cn2)no1       5
2     FCc1cc(-c2c(Br)cccc2Oc2ncc(Cl)cn2)no1      10

Prompt: May I ask what Crabgrass, Large plant response rating has been recorded for FC(F)(F)c1cc(-c2c(I)cccc2Oc2ncc(Cl)cn2)no1 ?
Completion: 5

----------
- Test system: velvetleaf (Abutilon theophrasti)
- Protocol Text: Test B pre-/postemergence plant response
- Type: in vivo
- Setup Conditions: Preemergence, 125 g ai/ha; 0 to 100 scale where 0 is no effect and 100 is complete control
- Source text: […]
Property: Plant response rating, Velvetleaf

                                   compound                           property  result
0  FC(F)(F)c1ccnc(-c2ccccc2Oc2ncc(Br)cn2)c1 [Compound 26]  Plant response rating, Velvetleaf      10

Prompt: Can you look up Plant response rating, Velvetleaf on velvetleaf (Abutilon theophrasti) for Clc1cnc(Oc2ccccc2-c2cccnc2)nc1 [Compound 4] ?
Completion: 0

----------
- Test system: sandbur (southern sandbur, Cenchrus echinatus)
- Protocol Text: Test F pre-/postemergence plant response
- Format: in vivo
- Setup Conditions: 31 g ai/ha Postemergence; scale 0 to 100
Listing of entries alongside the reported Plant response rating, Sandbur.
Answer field: number only, no words.

Here are 3 compounds together with their reported answers.
                         chemical_structure  number
0   CC(F)(F)c1cc(-c2ccccc2Oc2ncc(Br)cn2)no1       5
1          Cc1cc(-c2ccccc2Oc2ncc(Cl)cn2)on1       0
2  Fc1ccc(Oc2ncc(Cl)cn2)c(-c2cc(C(F)(Cl)Cl)on2)c1       0

Then there is this compound:
Prompt: May I ask what Plant response rating, Sandbur has been recorded for FC(F)c1cc(-c2ccccc2Oc2ncc(Br)cn2)on1 ?
Completion: 0

----------
- System: kochia (Kochia scoparia)
- Protocol Text: Test B pre-/postemergence plant response
- Type: in vivo
- Setup Conditions: 31 g ai/ha, Postemergence; 0 to 100 scale, 0 no effect, 100 complete control
Listing of entries alongside the reported Plant response rating, Kochia.
Answer field: number only, no words.

Here are 4 compounds together with their reported answers.
In [3]: df
Out[3]:
                                   compound  number
0  FC(Cl)c1cc(-c2ccccc2Oc2ncc(Cl)cn2)no1 (stereo not drawn)      90
1   Fc1cccc(Oc2ncc(Br)cn2)c1-c1cc(C(F)F)on1     100
2  FC(F)=Cc1cc(-c2c(F)cccc2Oc2ncc(Cl)cn2)no1       0
3         Brc1cnc(Oc2ccccc2-c2cc(Br)no2)nc1       0

Prompt: May I ask what Plant response rating, Kochia has been recorded for FC(F)c1cc(-c2c(Cl)cccc2Oc2ncc(Cl)cn2)on1 ?
Completion: 90

Prompt: May I ask what Plant response rating, Kochia has been recorded for COc1cccc(Oc2ncc(Cl)cn2)c1-c1cc(C(F)(F)F)no1 ?
Completion: 50
